Every entry's value here was drawn from patent US8106055B2.

Target: serotonin (5-HT) reuptake (Rattus norvegicus)
Construct: synaptosomes are freshly isolated from areas of the rat brain; from tissue; host or cells: rat brain synaptosomes (P2 fraction)
Sequence (P31652 whole entry): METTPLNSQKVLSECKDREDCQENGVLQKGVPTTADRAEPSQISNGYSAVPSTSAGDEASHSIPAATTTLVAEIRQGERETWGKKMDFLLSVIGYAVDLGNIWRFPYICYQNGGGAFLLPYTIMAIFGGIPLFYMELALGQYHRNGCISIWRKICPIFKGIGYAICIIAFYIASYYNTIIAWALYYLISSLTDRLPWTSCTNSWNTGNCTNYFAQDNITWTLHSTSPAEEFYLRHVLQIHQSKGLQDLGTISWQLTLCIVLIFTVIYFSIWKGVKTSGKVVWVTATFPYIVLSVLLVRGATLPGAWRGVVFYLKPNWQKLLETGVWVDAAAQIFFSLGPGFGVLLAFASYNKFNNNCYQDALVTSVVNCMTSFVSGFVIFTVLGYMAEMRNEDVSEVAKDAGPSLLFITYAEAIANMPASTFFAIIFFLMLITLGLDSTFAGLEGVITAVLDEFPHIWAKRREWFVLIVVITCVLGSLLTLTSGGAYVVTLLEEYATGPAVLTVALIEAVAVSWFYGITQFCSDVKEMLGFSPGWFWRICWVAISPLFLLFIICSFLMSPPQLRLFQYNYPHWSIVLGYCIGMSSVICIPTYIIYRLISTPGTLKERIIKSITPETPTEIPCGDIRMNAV
Assay: Inhibition of serotonin (5HT) reuptake in synaptosomes from rat brain
Type: biochemical
Conditions: test concentration of 10 μM; read-out: 5-HT (inhibition of reuptake of serotonin, % inhibition)
OBSERVABLE: inhibition at 10 µM

Req: # return inhibition at 10 µM for COc1ccc(S(=O)(=O)N2CCCCC2COCC(=O)NCCC2CCC(C(c3cccs3)N(C)C)CC2)cc1OC (stereo not shown) , test system: serotonin (5-HT) reuptake (Rattus norvegicus)
Resp: 91%

---

Molecular target: bradykinin 1 receptor (B1R) of the rat (Rattus norvegicus)
Construct: expressed in transfected cells; host or cells: CHO K1 cells
Sequence (P97583 whole entry): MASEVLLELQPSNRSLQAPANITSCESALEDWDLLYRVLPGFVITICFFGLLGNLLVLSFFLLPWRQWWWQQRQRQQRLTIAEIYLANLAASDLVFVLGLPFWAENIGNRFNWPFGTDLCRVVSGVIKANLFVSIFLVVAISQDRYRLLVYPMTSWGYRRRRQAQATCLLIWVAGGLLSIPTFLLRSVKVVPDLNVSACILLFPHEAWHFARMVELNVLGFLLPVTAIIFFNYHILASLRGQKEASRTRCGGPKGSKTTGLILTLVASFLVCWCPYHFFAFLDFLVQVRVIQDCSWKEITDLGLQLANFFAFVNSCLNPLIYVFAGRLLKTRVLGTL
Test: Functional investigation on the rat bradykinin 1 receptor (B1R), Ca2+ FLIPR assay in CHO K1 rB1R cells
Format: cell-based
Details: CHO-K1, B1R antagonism rat; test substance 10 μM; Ca2+ FLIPR, CHO K1 rB1R cells; read-out: B1R Ant. r [10 μM] % Inhibition
# inhibition at 10 µM listing for each entry below
Provide the reading as a plain figure in %.

Worked examples, 3 molecules total:
MOLECULE: CN(C)C(c1ccccc1)C1CCC(NC(=O)CNC(=O)c2nc(-c3ccc(C(F)(F)F)cc3)no2)CC1 (stereo not shown) [Example 765]
MEASURED TARGET: bradykinin 1 receptor (B1R) of the rat (Rattus norvegicus)
inhibition at 10 µM / %: 29

MOLECULE: CN(C)C(c1ccccc1)C1CCC(NC(=O)CNC(=O)c2nc(-c3cccs3)no2)CC1 (stereo not shown) [Example 764]
MEASURED TARGET: bradykinin 1 receptor (B1R) of the rat (Rattus norvegicus)
inhibition at 10 µM / %: -31

MOLECULE: COc1cc(C)c(S(=O)(=O)N2CCC(CCOCC(=O)NCC3CCC(C(c4cccs4)N(C)C)CC3)CC2)c(C)c1C (stereo not shown) [Example 131]
MEASURED TARGET: bradykinin 1 receptor (B1R) of the rat (Rattus norvegicus)
inhibition at 10 µM / %: -20

Req: Provide one value: measured inhibition at 10 µM of CN(C)C(c1cccs1)C1CCC(NC(=O)COCCN(C)S(=O)(=O)c2ccc(F)cc2)CC1 (stereo not shown) [Example 10]
Resp: 9

Req: Provide one value: measured inhibition at 10 µM of COc1ccc(S(=O)(=O)N2CCCCC2COCC(=O)NCC2CCC(C(c3cccc(F)c3)N(C)C)CC2)cc1 (stereo not shown) [Example 179]
Resp: 67

Req: Provide one value: measured inhibition at 10 µM of COc1cc(C)c(S(=O)(=O)N(CCOCC(=O)NCC2CCC(C(c3ccccc3)N(C)C)CC2)Cc2ccccc2)c(C)c1 (stereo not shown) [Example 148]
Resp: 46

---

# μ (binding on the μ opioid receptor, % inhibition) listing for each entry below
Biological target: human μ opiate receptor (Homo sapiens)
Construct: purchased PerkinElmer Life Sciences, Zaventem, Belgium RB-HOM; host or cells: CHO-K1 cells (membrane preparation)
Sequence (P35372 whole entry): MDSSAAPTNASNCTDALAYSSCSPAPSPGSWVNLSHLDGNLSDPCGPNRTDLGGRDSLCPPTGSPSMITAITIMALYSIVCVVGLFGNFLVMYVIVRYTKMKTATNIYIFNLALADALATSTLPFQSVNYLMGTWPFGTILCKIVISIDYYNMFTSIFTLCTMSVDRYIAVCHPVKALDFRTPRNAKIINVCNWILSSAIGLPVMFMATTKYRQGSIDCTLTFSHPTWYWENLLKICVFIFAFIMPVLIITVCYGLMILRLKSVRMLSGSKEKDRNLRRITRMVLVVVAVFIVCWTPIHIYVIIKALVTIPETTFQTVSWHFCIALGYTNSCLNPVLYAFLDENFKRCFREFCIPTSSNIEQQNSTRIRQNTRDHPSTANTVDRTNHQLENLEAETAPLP
Assay: Affinity for the human μ opiate receptor ([3H]-naloxone displacement, CHO-K1 receptor membrane preparation, SPA)
Assay type: binding
Settings: test concentration of 1 μM
Experimental: Binding data of the compounds on the μ opioid receptor and data on the inhibition of reuptake of serotonin (5-HT) are given in Table 1. The data for the μ receptor were measured at a test concentration of 1 μM, and those for the serotonin reuptake at 10 μM. The values are stated in % inhibition. […] The receptor affinity for the human p opiate receptor is determined in a homogeneous set-up in microtitre plates. […]

COMPOUND: CN(C)C(c1ccc(F)cc1)C1CCC(NC(=O)COCCN(C)S(=O)(=O)c2ccc(Cl)cc2Cl)CC1 (centres unmarked)
ASSAY VALUE: 55%
//
COMPOUND: COc1cc(C)c(S(=O)(=O)N2CCC(CCOCC(=O)NCC3CCC(C(CCc4ccccc4)N(C)C)CC3)CC2)c(C)c1C (centres unmarked)
ASSAY VALUE: 39%
//
COMPOUND: CC(Oc1ccccc1)C(=O)NCC1CCC(C(c2ccc(Cl)cc2)N(C)C)CC1 (single isomer, unassigned) [Example 238]
ASSAY VALUE: 81%
//
COMPOUND: CN(C)C(c1ccc(F)cc1)C1CCC(CNC(=O)COCCC2CCN(S(=O)(=O)c3ccccc3)CC2)CC1 (centres unmarked)
ASSAY VALUE: 7%
//
COMPOUND: CN(C)C(c1cccc(F)c1)C1CCC(NC(=O)COCC2CCCN(S(=O)(=O)c3ccccc3)C2)CC1 (centres unmarked)
ASSAY VALUE: 74%

Req: Provide one value: measured μ (binding on the μ opioid receptor, % inhibition) of CN(C)C(c1ccc(F)cc1)C1CCC(CNC(=O)COCC2CCCN2S(=O)(=O)c2ccc(Cl)c(Cl)c2)CC1 (centres unmarked)
Resp: 73%

Req: Provide one value: measured μ (binding on the μ opioid receptor, % inhibition) of CN(C)C(c1ccc(F)cc1)C1CCC(CCNC(=O)COCCN(C)S(=O)(=O)c2ccc(OC(F)(F)F)cc2)CC1 (centres unmarked)
Resp: 51%

Req: Provide one value: measured μ (binding on the μ opioid receptor, % inhibition) of CCN(CCOCC(=O)NCC1CCC(C(CCc2ccccc2)N(C)C)CC1)S(=O)(=O)c1c(C)cc(OC)c(C)c1C (centres unmarked)
Resp: 43%

Req: Provide one value: measured μ (binding on the μ opioid receptor, % inhibition) of CN(C)C(c1ccccc1)C1CCC(CNC(=O)COCC2CCCN(S(=O)(=O)c3ccccc3)C2)CC1 (centres unmarked)
Resp: 89%

Req: Provide one value: measured μ (binding on the μ opioid receptor, % inhibition) of CN(C)C(c1ccc(F)cc1)C1CCC(CNC(=O)COC2CCN(S(=O)(=O)c3ccccc3)C2)CC1 (centres unmarked)
Resp: 35%

Req: Provide one value: measured μ (binding on the μ opioid receptor, % inhibition) of CN(C)C(c1ccc(Cl)cc1)C1CCC(CCNC(=O)COCCN(C)S(=O)(=O)c2ccc(Cl)cc2Cl)CC1 (centres unmarked)
Resp: 65%

Req: Provide one value: measured μ (binding on the μ opioid receptor, % inhibition) of CN(C)C(CCc1ccccc1)C1CCC(CNC(=O)COCCN2CCN(S(=O)(=O)c3ccccc3)CC2)CC1 (centres unmarked)
Resp: 32%

Req: Provide one value: measured μ (binding on the μ opioid receptor, % inhibition) of COc1ccc(S(=O)(=O)N(C)CCOCC(=O)NCC2CCC(C(c3ccc(Cl)cc3)N(C)C)CC2)cc1 (centres unmarked)
Resp: 62%

Req: Provide one value: measured μ (binding on the μ opioid receptor, % inhibition) of COc1cc(C)c(S(=O)(=O)N2CCCC(OCC(=O)NCCC3CCC(C(c4ccc(Cl)cc4)N(C)C)CC3)C2)c(C)c1C (centres unmarked)
Resp: 46%
